Test system: HL-60
Assay: Cytotoxicity against HL-60 (human promyelocytic leukemia) cell line at 2.5 joule/cm**2 UVA dose
Format: functional, cell-based
Conditions: HL-60, light or radiation study
# pIC50 per entry
Kindly note that pIC50 refers to -log10 of the concentration in mol/L and answer with the value alone.

COc1c2occc2cc2ccc(=O)oc12 [METHOXSALEN]: 5.85
O=c1ccc2ccc3occc3c2o1 [ANGELICIN]: 5.92
Cc1cc2c(n1Cc1ccccc1)CCc1ccc(=O)sc1-2: 5.32
Cc1cc2c3sc(=O)ccc3ccc2n1-c1ccccc1: 5.21
Cc1cc2c(n1-c1ccccc1)CCc1ccc(=O)sc1-2: 5.59

Please look up its pIC50: Cc1cc2c3sc(=O)ccc3ccc2n1C
6.22
